PROTOCOL TEXT: Urinary excretion in rats after oral administration
Format: in vivo
RUN PARAMETERS: rat, urine, 20 mg/kg, bioassay, read-out: Urinary recovery in 24 hours (%)

# COMPOUND, DISPLAY UNIT, dose excreted at 24 h
records = [
    ("Nc1nc(/C(=N/OCC(=O)O)C(=O)NC2C(=O)N3C(C(=O)O)=C(/C=C/Cl)CSC23)cs1 (stereo not shown) [A]", "%", 51.1),
]
